Assay: Intrinsic clearance in rat liver microsomes
Type: in vitro ADME
Conditions: 37° C., 1 μM compound, 1 mg/mL microsomal protein
Method: Intrinsic clearance (CLint). CLint was determined in rat and human liver microsomes. Incubations were performed at 37° C., at a concentration of 1 μM of compound, and a microsomal protein concentration of 1 mg/mL. […] The in vitro permeability and potential to be transported by P-glycoprotein (P-gp) was determined using an MDCK cell line transfected with human MDR1 (P-glycoprotein). […] The efflux ratio (B→*A-GF120918/A→B-GF120918) was calculated to determine whether the test compound was a P-gp substrate. […]
VALUE KIND: microsomal CLint at 1 μM (µL/min/mg)

>  <RECORD SMILES>
CCCC[C@H](CO)Nc1nc(NC(=O)OCC)nc2c(C)cccc12

>  <OBSERVED MEASUREMENT>
109

$$$$
>  <RECORD SMILES>
CCCC[C@H](COC(=O)C(C)C)Nc1nc(NC(=O)C(C)C)nc2c(C)cccc12

>  <OBSERVED MEASUREMENT>
84

$$$$
